Assay: Antiplatelet activity in human platelet rich plasma assessed as inhibition of arachidonic acid-induced aggregation preincubated for 10 mins before arachidonic acid challenge by aggregometry method
Assay type: functional, cell-free
Reported Endpoint: IC50 (µM)

{"Compound": "CC(=O)Oc1ccccc1C(=O)O [ASPIRIN]", "Scale Unit": "µM", "IC50": 80}
{"Compound": "CC(=O)Nc1ccc2c(C)cc(=O)oc2c1", "Scale Unit": "µM", "IC50": 77}

* * *

Assay: Inhibition of platelet CRTAase assessed as inhibition of platelet aggregation at 50 uM by spectrophotometry
Active and inactive are the calls of the source. The calls are words filed in the database; no cut-off is given here.
The reply should name one outcome from 1.0 (active), 0.0 (inactive)

Worked examples follow.
{"Compound String": "CCc1c(C)c2ccc(NC(C)=O)cc2oc1=O", "Category Label": 1.0}
{"Compound String": "CCc1c(C)c2ccc(OC(C)=O)c(C(C)=O)c2oc1=O", "Category Label": 0.0}
{"Compound String": "CC(=O)Oc1cc2oc(=O)cc(C)c2cc1C(C)=O", "Category Label": 0.0}

Exercise: Which outcome was entered for the compound `CCCCCCCCCCc1c(C)c2ccc(NC(C)=O)cc2oc1=O` in this test?
Solution: 1.0

Exercise: So what was the verdict on `CC(=O)Nc1ccc2c(C(F)(F)F)cc(=O)[nH]c2c1` in this test?
Solution: 1.0

Exercise: Hey, what did the test say about `CC(=O)Nc1ccc2c(C)cc(=O)oc2c1` ?
Solution: 1.0

The values you see were collected from ChEMBL document CHEMBL1949529.
